# TARGET OR SYSTEM: T1, Mature Pertactin (Prn) (Bordetella pertussis, strain  …)
# T1 construct: pertactin (Prn) of Bordetella pertussis, mature passenger domain; the legend on D1:p9 names 1DAB instead; also called wild-type Prn; wild type Prn
# T1 chain: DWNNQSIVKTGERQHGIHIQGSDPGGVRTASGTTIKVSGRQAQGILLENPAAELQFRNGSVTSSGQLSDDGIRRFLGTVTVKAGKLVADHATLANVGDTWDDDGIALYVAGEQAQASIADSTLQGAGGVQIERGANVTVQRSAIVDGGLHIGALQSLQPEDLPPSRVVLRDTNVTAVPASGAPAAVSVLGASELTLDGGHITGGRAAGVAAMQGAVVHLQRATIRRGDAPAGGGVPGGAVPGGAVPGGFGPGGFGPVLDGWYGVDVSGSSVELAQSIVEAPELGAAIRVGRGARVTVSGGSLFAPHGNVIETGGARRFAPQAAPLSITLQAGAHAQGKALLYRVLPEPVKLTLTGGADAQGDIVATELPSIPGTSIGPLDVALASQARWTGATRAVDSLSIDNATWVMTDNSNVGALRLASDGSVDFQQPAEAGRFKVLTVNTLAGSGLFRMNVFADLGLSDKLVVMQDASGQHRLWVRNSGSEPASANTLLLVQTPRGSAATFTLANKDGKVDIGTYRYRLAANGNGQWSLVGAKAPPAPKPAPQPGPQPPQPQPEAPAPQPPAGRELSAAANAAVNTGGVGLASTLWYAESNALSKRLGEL
# TEST: BLI; mAb (10 nM) loaded on anti-mouse IgG Fc (AMC) biosensors, dipped into Prn at 50, 25, 12.5, 6.25, 3.125 and 1.56 nM; kinetic buffer (HEPES buffer with 0.01% BSA and 0.002% Tween-20); Octet Red96; 1:1 binding model, global fit, single replicate
# EXPERIMENTAL CONTEXT: both partners purified
RESULT TYPE: Kd

Measured Kd of 2E9 monoclonal antibody (antibody, V domains shown, 2E9 HC, whole heavy chain as printed: variable region with mouse IgG2a constant domains; 2E9 LC, whole light chain as printed; full-length mouse IgG2a; measured mass 147,603 Da; also called 2E9 mAb; 2E9 Ab; source: ExpiCHO-S, transfected, purified (HiTrap Protein A); copies: 2 + 2) VH: QVQLQQSGPELVKPGASVKMSCKASGYTFTSNYIHWMKQRPGQGLEWIGWIYPGDGSSKYNEKFKGKTTLTADRSSSTAYMLLSSLTSEDSAIYFCANYFYAMDQWGQGTSVTVSR VL: IVLTQSHKFMSTSVGDRVSITCKASQDVSTAVAWYQQKPGQSPKLLIYWASTRHTGVPDRFTGSGSGTDYTLTISSVQAEDLALYYCQQHYSTPWTFGGGTKLEIK : < 1 nM

Each recorded value in this set is attributed to paper PMC12994607.
